In this section, each of the molecules is paired with its reported pKi.
target: DNA-(apurinic or apyrimidinic site) endonuclease (Homo sapiens, UniProt P27695); experiment: High-Throughput Screening and IC50 Determinations; conditions: pH 7.5; 22 °C
Sequence (P27695 whole entry): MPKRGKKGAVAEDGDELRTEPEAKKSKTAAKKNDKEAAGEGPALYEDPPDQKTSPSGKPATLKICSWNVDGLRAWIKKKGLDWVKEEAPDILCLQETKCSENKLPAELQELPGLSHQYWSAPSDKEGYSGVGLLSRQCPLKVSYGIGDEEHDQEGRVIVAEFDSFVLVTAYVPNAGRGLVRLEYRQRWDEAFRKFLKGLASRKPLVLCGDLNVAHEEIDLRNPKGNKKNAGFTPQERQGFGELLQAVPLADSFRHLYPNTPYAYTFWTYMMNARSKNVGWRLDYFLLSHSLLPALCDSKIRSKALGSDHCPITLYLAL
Just the number, please; pKi means minus log10 of the concentration in mol/L.

Summary for this molecule, O=C(O)c1cc[c]([Sb](=[O])([OH])[OH])cc1[N+](=O)[O-] : pKi is 7.72

Let us move to another entry and its pKi.
Item: CCOC(=O)CCCc1cc[c]([Sb](=[O])([OH])[OH])cc1 | pKi: 7.44

* * *

target: DNA-(apurinic or apyrimidinic site) endonuclease (Homo sapiens); experiment: High-Throughput Screening and IC50 Determinations; conditions: pH 7.5; 22 °C
property.measured: pIC50
// pIC50 is dimensionless: -log10 of concentration (M)

For this compound ( CCOC(=O)CCCc1cc[c]([Sb](=[O])([OH])[OH])cc1 ), measured pIC50 is 7.77

New cases:
// O=C(O)c1cc[c]([Sb](=[O])([OH])[OH])cc1[N+](=O)[O-] : pIC50 value = 8.40

Query O=C(Nc1cc[c]([Sb](=[O])([OH])[OH])cc1)c1ccccc1 yields pIC50 of 6.52

Kindly note the recorded pIC50 for O=C(O)/C=C/c1ccc[c]([Sb](=[O])([OH])[OH])c1 , which is 6.70
